Provide the reported IC50 of each item.
Biological target: Recombinant human MMP-2 (Homo sapiens, UniProt P08253)
Construct: made in house
Sequence (P08253 110-660): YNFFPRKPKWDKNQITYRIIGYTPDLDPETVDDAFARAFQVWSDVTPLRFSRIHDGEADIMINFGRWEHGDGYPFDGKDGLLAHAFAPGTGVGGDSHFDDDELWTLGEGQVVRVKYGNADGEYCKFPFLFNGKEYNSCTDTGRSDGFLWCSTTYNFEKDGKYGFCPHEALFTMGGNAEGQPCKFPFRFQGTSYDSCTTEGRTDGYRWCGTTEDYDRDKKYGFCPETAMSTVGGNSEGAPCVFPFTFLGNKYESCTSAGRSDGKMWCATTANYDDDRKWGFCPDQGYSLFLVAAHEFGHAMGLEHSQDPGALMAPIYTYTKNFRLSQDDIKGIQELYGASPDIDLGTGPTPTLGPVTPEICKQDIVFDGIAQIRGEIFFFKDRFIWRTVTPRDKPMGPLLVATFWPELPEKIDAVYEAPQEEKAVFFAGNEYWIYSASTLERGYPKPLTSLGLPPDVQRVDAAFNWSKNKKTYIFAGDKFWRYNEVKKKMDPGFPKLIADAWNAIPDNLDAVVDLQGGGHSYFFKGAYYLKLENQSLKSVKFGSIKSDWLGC
Assay: In vitro MMP inhibition, fluorogenic peptide substrate
Type: biochemical
Details: Inhibition Table A
Express the result in nM but write the number alone.

Any idea what IC50 was measured for `O=C(NO)c1ccccc1S(=O)(=O)N1CCC(Cc2ccccc2)CC1` ?
148

IC50 lookup needed for COc1ccc(C(=O)NC2CCN(S(=O)(=O)c3ccccc3C(=O)NO)C2)cc1 (stereo not drawn) , thanks.
2300

Name the reported IC50 value associated with the compound O=C(NO)c1ccccc1S(=O)(=O)N1CCC(Oc2ccc(C(F)(F)F)cc2)C1 (stereo not drawn)
1800

What measured IC50 goes with `O=C(NO)c1ccccc1S(=O)(=O)N1CCC(OCc2ccc(C(F)(F)F)cc2)CC1` ?
35

IC50 for `O=C(NO)c1ccccc1S(=O)(=O)Nc1ccc(Oc2ccccc2)cc1` ?
3500
